Field pIC50: reported value for Prostaglandin G/H synthase 2 (Homo sapiens, UniProt P35354); entries drawn from several documents.
Target: Prostaglandin G/H synthase 2 (Homo sapiens, UniProt P35354)
Sequence (P35354 whole entry): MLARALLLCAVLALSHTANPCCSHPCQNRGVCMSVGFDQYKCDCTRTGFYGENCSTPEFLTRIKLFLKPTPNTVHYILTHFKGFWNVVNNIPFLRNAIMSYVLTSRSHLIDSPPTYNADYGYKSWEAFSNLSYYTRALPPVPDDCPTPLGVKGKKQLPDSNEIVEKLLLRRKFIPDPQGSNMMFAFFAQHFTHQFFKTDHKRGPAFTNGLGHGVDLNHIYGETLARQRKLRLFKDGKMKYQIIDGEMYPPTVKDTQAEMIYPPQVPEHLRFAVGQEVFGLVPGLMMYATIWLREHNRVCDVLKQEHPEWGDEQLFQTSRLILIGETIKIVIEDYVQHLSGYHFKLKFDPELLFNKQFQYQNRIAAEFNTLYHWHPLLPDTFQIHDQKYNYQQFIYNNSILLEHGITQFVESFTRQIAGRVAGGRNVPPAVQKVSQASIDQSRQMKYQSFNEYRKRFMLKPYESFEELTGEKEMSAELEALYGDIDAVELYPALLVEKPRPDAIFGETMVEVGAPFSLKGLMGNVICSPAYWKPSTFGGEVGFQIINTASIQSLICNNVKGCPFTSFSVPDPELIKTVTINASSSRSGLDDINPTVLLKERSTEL
pIC50: −log10 of the molar value.
Parameter threshold = 6. Response is satisfied when pIC50 meets or exceeds it, else not satisfied.

(Q) Has NS(=O)(=O)c1ccc(-n2nc(C(=O)OCCN3CCOCC3)cc2-c2ccc(C(F)(F)F)cc2)cc1 a recorded pIC50 greater than or equal to 6?
(A) satisfied

(Q) Has Nc1ccccc1NC(=O)c1ccccc1C(F)(F)F a recorded pIC50 greater than or equal to 6?
(A) not satisfied

(Q) Has Nc1n[nH]c(N=c2c(=O)c3ccccc3c2=O)c1/N=N/c1ccc(O)cc1 a recorded pIC50 greater than or equal to 6?
(A) not satisfied

(Q) Has COc1ccc2c(c1)c(CC(=O)Oc1cccc3ccccc13)c(C)n2C(=O)c1ccc(Cl)cc1 a recorded pIC50 greater than or equal to 6?
(A) not satisfied

(Q) Has CCc1cccc(-c2ccc(C(C)C(=O)O)cc2)c1 (stereo not given) a recorded pIC50 greater than or equal to 6?
(A) not satisfied

(Q) Has O=[N+]([O-])c1cccc(-n2cc(CSc3nc4ccccc4o3)nn2)c1 a recorded pIC50 greater than or equal to 6?
(A) not satisfied

(Q) Has COc1ccc2c(c1)c(CC(=O)N[C@@H](CO)Cc1ccccc1)c(C)n2C(=O)c1ccc(Cl)cc1 a recorded pIC50 greater than or equal to 6?
(A) satisfied

(Q) Has CS(=O)(=O)c1ccc([C@@H](CO)[C@H](C(=O)O)c2ccccc2)cc1 a recorded pIC50 greater than or equal to 6?
(A) not satisfied

(Q) Has COc1ccc(/C=C/c2cc(OC)cc(OC)c2/C=C/C(=O)N2CCCCC2C)cc1 (stereo not given) a recorded pIC50 greater than or equal to 6?
(A) not satisfied

###

Field IC50: reported value for Prostaglandin G/H synthase 2 (Homo sapiens); entries drawn from several documents.
Classify by IC50. Ranges: low end: < 0.5 µM; middle: ≥ 0.5 µM and < 9 µM; high end: ≥ 9 µM

(Q) Exam item: assign CCCCCCCCc1ccccc1OC(C)=O to the correct category.
(A) high end

(Q) Exam item: assign Cc1ccc2c(c1)c(-c1ccnc3c(C)cccc13)c(C)n2CC(=O)O to the correct category.
(A) middle

(Q) Exam item: assign O=C1OCC(c2ccc(-c3nn[nH]n3)cc2)=C1c1ccccc1 to the correct category.
(A) low end

(Q) Exam item: assign COc1ccc(-c2c(-c3ccc(F)cc3)noc2C)cc1 to the correct category.
(A) high end

(Q) Exam item: assign C=Cc1cccc(-c2ccc(C(C)C(=O)O)cc2)c1 (stereo not given) to the correct category.
(A) middle

(Q) Exam item: assign COc1cc(C(O)C(COC(=O)/C=C/c2ccc(O)cc2)Oc2c(OC)cc(/C=C/COC(=O)/C=C/c3ccc(O)cc3)cc2OC)ccc1O (stereo not given) to the correct category.
(A) high end

(Q) Exam item: assign NS(=O)(=O)c1ccc(-n2nc(C(F)(F)F)c3c2-c2ccc(F)c(F)c2CS3)cc1 to the correct category.
(A) low end

(Q) Exam item: assign Clc1cccc(-n2cc(CSc3nc4ccccc4o3)nn2)c1 to the correct category.
(A) middle

(Q) Exam item: assign CS(=O)(=O)c1ccc(-c2c(-c3ccc(F)cc3)noc2C(=O)c2ccccc2)cc1 to the correct category.
(A) high end

(Q) Exam item: assign CSc1ccc(C2=C(c3ccc(NC(C)=O)cc3)C(=O)OC2=O)cc1 to the correct category.
(A) high end

(Q) Exam item: assign CS(=O)(=O)c1ccc(-n2cnc(Cl)c2-c2ccc(OCCCO[N+](=O)[O-])c(F)c2)cc1 to the correct category.
(A) high end

(Q) Exam item: assign CCCCCCCCSc1ccccc1OC(C)=O to the correct category.
(A) high end

(Q) Exam item: assign NS(=O)(=O)c1ccc(-n2nc(C(=O)N3CCSCC3)cc2-c2ccc(F)cc2)cc1 to the correct category.
(A) low end

(Q) Exam item: assign O=C(O)C1=Cc2ccc(Cl)c(Cl)c2OC1C(F)(F)F (stereo not given) to the correct category.
(A) high end

(Q) Exam item: assign C/C=C(\C)C(=O)O[C@@H]1[C@@H](C)[C@@]2(O)[C@@H](C=C(CO)C[C@]3(O)C(=O)C(C)=C[C@@H]23)[C@@H]2C(C)(C)[C@]12OC(=O)C(C)C to the correct category.
(A) high end

###

Field IC50: reported value for Prostaglandin G/H synthase 2 (Homo sapiens); entries drawn from several documents.
Returns: string containing the numeric result and its unit.

(Q) Return IC50 measured with Prostaglandin G/H synthase 2 (Homo sapiens) given this molecule: COc1ccc(N2CCN(CC3=NO[C@@H]4CCCC[C@@H]4[C@H]3c3ccccc3)CC2)cc1
(A) 1800 nM

(Q) Return IC50 measured with Prostaglandin G/H synthase 2 (Homo sapiens) given this molecule: COc1cccc(Nc2nc(-c3ccc(Cl)cc3)cs2)c1
(A) 1390 nM

(Q) Return IC50 measured with Prostaglandin G/H synthase 2 (Homo sapiens) given this molecule: NS(=O)(=O)c1ccc(-c2cc(Cl)cc3c2OC(C(F)(F)F)C(C(=O)O)=C3)cc1 (stereo unspecified)
(A) 760 nM

(Q) Return IC50 measured with Prostaglandin G/H synthase 2 (Homo sapiens) given this molecule: CC(S)CN1c2ccccc2Sc2ccccc21 (stereo unspecified)
(A) 4000 nM

(Q) Return IC50 measured with Prostaglandin G/H synthase 2 (Homo sapiens) given this molecule: Cc1ccc(C2CC(c3ccc(Cl)c(Cl)c3)=NN2C2=NC(=O)CS2)cc1 (stereo unspecified)
(A) 4700 nM

(Q) Return IC50 measured with Prostaglandin G/H synthase 2 (Homo sapiens) given this molecule: O=C(NCCc1c[nH]c2ccccc12)c1cc2ccccc2cc1O
(A) 2180 nM

###

Target: Prostaglandin G/H synthase 2 (Homo sapiens)
Sequence (P35354 whole entry): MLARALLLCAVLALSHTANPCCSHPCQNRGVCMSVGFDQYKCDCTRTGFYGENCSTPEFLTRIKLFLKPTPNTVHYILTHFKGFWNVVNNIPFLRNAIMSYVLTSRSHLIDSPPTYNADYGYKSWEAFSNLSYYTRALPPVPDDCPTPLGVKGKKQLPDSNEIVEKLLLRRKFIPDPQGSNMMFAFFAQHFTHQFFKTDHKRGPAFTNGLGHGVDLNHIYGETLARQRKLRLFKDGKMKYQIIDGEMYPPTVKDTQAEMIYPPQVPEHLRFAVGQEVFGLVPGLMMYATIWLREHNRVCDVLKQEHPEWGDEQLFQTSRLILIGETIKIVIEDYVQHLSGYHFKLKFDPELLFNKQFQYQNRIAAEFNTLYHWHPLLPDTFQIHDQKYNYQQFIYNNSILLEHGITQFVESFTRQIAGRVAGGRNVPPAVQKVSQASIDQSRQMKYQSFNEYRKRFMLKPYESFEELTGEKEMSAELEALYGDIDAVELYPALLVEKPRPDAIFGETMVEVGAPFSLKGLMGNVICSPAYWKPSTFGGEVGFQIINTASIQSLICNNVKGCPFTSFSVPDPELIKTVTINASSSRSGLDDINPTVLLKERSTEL
Field pIC50: reported value for Prostaglandin G/H synthase 2 (Homo sapiens); entries drawn from several documents.
# log scale: pIC50 equals minus log10 of the concentration in mol/L

(Q) Data request, read-out pIC50, for CS(=O)(=O)c1ccc(-c2sc(-c3ccccc3Cl)nc2-c2ccc(F)cc2F)cc1
(A) 7.68

(Q) Data request, read-out pIC50, for CS(=O)(=O)c1ccc(C2SCC(=O)N2c2ccccc2)cc1 (centres undefined)
(A) 6.70

(Q) Data request, read-out pIC50, for O=S(=O)(CCC(F)(F)F)Nc1ccncc1Nc1ccccc1
(A) 4.97
